# target.entity: human GPR119 (Homo sapiens)
# Construct: expression vector for human GPR119 cDNA (Acc. No. NP_848566)
# Sequence (Q8TDV5 whole entry): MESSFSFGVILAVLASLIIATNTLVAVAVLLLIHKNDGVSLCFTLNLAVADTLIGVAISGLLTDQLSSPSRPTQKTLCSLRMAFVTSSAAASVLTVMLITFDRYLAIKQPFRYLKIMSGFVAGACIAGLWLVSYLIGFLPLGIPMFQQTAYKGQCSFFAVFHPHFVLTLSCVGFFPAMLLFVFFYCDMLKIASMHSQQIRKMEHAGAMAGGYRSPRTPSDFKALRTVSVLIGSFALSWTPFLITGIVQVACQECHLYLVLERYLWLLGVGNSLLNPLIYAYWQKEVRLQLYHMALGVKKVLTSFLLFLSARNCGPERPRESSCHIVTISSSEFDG
# test.protocol: AlphaScreen cAMP assay in MIN6 cells stably transfected with human GPR119
# measurement.setup: Min-6/hGPR119 cells, 45 minutes incubation at room temperature
Threshold check on EC50: strictly below 60 nM is Condition met; on or above 60 nM is Condition not met.

Worked set:
A record lists CC(C)c1noc(N2CCC(N(C(=O)c3ccc(-c4cnco4)nc3)C3CC3)CC2)n1 . Is its EC50 below 60 nM?
Condition met

Is EC50 strictly under 60 nM for the entry CC(C)c1noc(N2CCC(N(C(=O)c3cc(-c4ccc(C#N)cc4F)on3)C3CC3)CC2)n1 ?
Condition met

Bench note: check whether Cc1cnc(N2CCC(N(C(=O)c3ccc(-c4cnco4)nc3)C3CC3)CC2)nc1 shows EC50 below 60 nM
Condition not met

Identify whether the compound CC(C)(C)c1noc(N2CCC(N(C(=O)c3cnc(-c4cnco4)cn3)C3CC3)CC2)n1 records EC50 below 60 nM.
Condition met

Consider Cc1nccn1-c1ncc(C(=O)N(C2CC2)C2CCN(c3noc(C4CC4)n3)CC2)cn1 . Does its EC50 lie strictly below 60 nM?
Condition not met

Continuing:
Confirm or reject: EC50 of O=C(c1cnc(-n2ccnc2)nc1)N(C1CC1)C1CCN(c2noc(C3CC3)n2)CC1 lies strictly below 60 nM
Condition not met

Is it true that EC50 reported for CCc1nccn1-c1ncc(C(=O)N(C2CC2)C2CCN(c3noc(C4CC4)n3)CC2)cn1 is less than 60 nM?
Condition not met

Please let me know if CCc1cnc(N2CCC(N(C(=O)c3cnc(-c4ccc(CC#N)cc4)nc3)C3CC3)CC2)nc1 shows EC50 below 60 nM.
Condition not met

Does CCCc1noc(N2CCC(N(C(=O)c3noc(-c4ccc(C#N)cc4F)n3)C3CC3)CC2)n1 have EC50 strictly under 60 nM?
Condition met

Is the reported EC50 for CCc1cnc(N2CCC(N(C(=O)c3ccc(-c4cnco4)nc3)C3CC3)CC2)nc1 strictly below 60 nM?
Condition met

Is EC50 strictly under 60 nM for the entry CC(C)c1noc(N2CCC(N(C(=O)c3ccc(-c4ccc(S(C)(=O)=O)cc4)nc3)C3CC3)CC2)n1 ?
Condition not met

For CCc1cnc(N2CCC(N(C(=O)c3cnc(-n4ccnc4C)nc3)C3CC3)CC2)nc1 , is the recorded EC50 below the cut-off of 60 nM?
Condition met

EC50 under 60 nM? Item: CC(C)(C)c1noc(N2CCC(N(C(=O)c3cc(-c4ccc(C#N)cc4F)on3)C3CC3)CC2)n1
Condition met

Hello, is EC50 of the following compound strictly smaller than 60 nM? O=C(c1cnc(-c2ccncc2)nc1)N(C1CC1)C1CCN(c2nc(-c3ccccc3)no2)CC1
Condition met

Does Cc1nccn1-c1ncc(C(=O)N(C2CC2)C2CCN(c3ncc(C(F)(F)F)cc3F)CC2)cn1 have EC50 strictly under 60 nM?
Condition met

###

# target.entity: mutant form of the human GPR119 receptor (Homo sapiens, UniProt Q8TDV5, S329A/T327A)
# Construct: expressed in transfected cells
# Sequence (Q8TDV5 with tags, fused parts or gaps T327A/S329A): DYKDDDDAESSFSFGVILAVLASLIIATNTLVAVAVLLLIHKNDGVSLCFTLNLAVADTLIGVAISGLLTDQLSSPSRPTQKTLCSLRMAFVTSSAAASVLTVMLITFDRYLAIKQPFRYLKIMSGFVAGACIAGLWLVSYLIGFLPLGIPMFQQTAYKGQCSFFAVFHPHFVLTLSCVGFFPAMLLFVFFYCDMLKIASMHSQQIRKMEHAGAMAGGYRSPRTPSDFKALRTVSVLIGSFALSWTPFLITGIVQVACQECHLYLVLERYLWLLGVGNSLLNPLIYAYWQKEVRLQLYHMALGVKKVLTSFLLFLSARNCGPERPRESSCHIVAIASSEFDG
# test.protocol: LANCE cAMP-384 assay in HEK293 cells stably expressing a mutant form of the human GPR119 receptor
# Format: cell-based
# measurement.setup: cAMP accumulation, GPR119 stable HEK293 cells, LANCE kit, 20 min at 37° C.
measured.property: EC50 (nM)
Hi! Could you send only the number? It should be in nM, unit omitted.

Examples from the recorded data:
What does the data say about its EC50? Entry: Cc1nnnn1-c1ccc(C(=O)N(C2CC2)[C@H]2CCN(c3ccc(C(F)(F)F)cn3)C[C@H]2F)cn1 (single isomer, unassigned)
127

Please look up its EC50: O=C(c1cnc(-n2cncn2)cn1)N(C1CC1)[C@@H]1CCN(c2ccc(C(F)(F)F)cn2)C[C@@H]1F (single isomer, unassigned)
9

Can you look up the measured EC50 of CC(C)c1noc(N2CCC(N(C(=O)c3cnc(-n4cncn4)cn3)C3CC3)CC2)n1 for me?
812

Okay, now this molecule:
What value of EC50 has been recorded for this entry: Cc1nccn1-c1ccc(C(=O)N(C2CC2)C2CCN(c3ncc(C(F)(F)F)cc3F)CC2)cn1
73
